experiment: Plasma pharmacokinetics and brain distribution in mice; type: in vivo, male BALB/c mice; details: male, BALB/c, mouse, iv; i.v. 2 mg/kg, brain; read-out: Vss
readout_name: Vd

Kindly note the recorded Vd for CNCCN(C)c1cc(C#N)cc(CCc2cc(C)cc(N)n2)c1 [Compound 19c] , which is 44 L/kg

* * *

molecular target: murine iNOS (Mus musculus (Mouse), UniProt P29477); assay: Oxyhemoglobin NO capture assay with purified NOS; format: biochemical; conditions: ratio Ki iNOS / Ki rat nNOS, Table 9
// map i/n selectivity to label using LOW (below 50), MID (50 to below 200), HIGH (200 or more)

**Q:** Into which bin does this compound go? Cc1cc(N)nc(CCc2cc(F)cc(N(C)CCNC3CC3)c2)c1 [Compound 23c]
**A:** HIGH

**Q:** Into which bin does this compound go? Cc1cc(N)nc(CCc2cc(C#N)cc(N(C)CCNC3CC3)c2)c1 [Compound 21c]
**A:** HIGH

**Q:** Into which bin does this compound go? CCNCCN(C)c1cc(C#N)cc(CCc2cc(C)cc(N)n2)c1 [Compound 21a]
**A:** MID

**Q:** Into which bin does this compound go? Cc1cc(N)nc(CCc2cccc(N(C)CCCN)c2)c1 [Compound 10d]
**A:** LOW

**Q:** Into which bin does this compound go? Cc1cc(N)nc(CCc2cc(F)cc(NCCN(C)C)c2)c1 [Compound 23a]
**A:** LOW

**Q:** Into which bin does this compound go? CNCCN(C)c1cccc(CCc2cc(C)cc(N)n2)c1 [Compound 10a]
**A:** LOW

**Q:** Into which bin does this compound go? CNCCN(C)c1cc(CCc2cc(C)cc(N)n2)cc(C(F)(F)F)c1 [Compound 19a]
**A:** MID

**Q:** Into which bin does this compound go? Cc1cc(N)nc(CCc2cc(F)cc(NC3CCNCC3)c2)c1 [Compound 23i]
**A:** MID

**Q:** Into which bin does this compound go? CNCCN(c1cc(F)cc(CCc2cc(C)cc(N)n2)c1)C1CC1 [Compound 23e]
**A:** MID

* * *

experiment: Plasma pharmacokinetics and brain distribution in mice; type: in vivo, male BALB/c mice; settings: male, BALB/c, mouse, brain, iv, 2 mg/kg, i.v. 2 mg/kg
readout_name: clearance (mL/min/kg)
Express it in mL/min/kg; write the number only.

Kindly note the recorded clearance for CNCCN(C)c1cc(C#N)cc(CCc2cc(C)cc(N)n2)c1 [Compound 19c] , which is 21

* * *

experiment: Plasma pharmacokinetics and brain distribution in mice; format: in vivo, male BALB/c mice; settings: male, BALB/c, mouse, brain, iv, 2 mg/kg, i.v. 2 mg/kg
readout_name: half-life (h)
Express it in h; write the number only.

Kindly note the recorded half-life for CNCCN(C)c1cc(C#N)cc(CCc2cc(C)cc(N)n2)c1 [Compound 19c] , which is 24.8

* * *

target: bovine eNOS (Bos taurus (Bovine), UniProt P29473); test: Oxyhemoglobin NO capture assay with purified NOS; format: biochemical; conditions: ratio Ki eNOS / Ki rat nNOS, Table 9
// map e/n selectivity to label using low (below 100), intermediate (100 to below 200), high (200 or more)

**Q:** Into which bin does this compound go? CNCCN(C)c1cc(CCc2cc(C)cc(N)n2)cc(C(F)(F)F)c1 [Compound 19a]
**A:** high

**Q:** Into which bin does this compound go? Cc1cc(N)nc(CCc2cc(F)cc(NCCN(C)C)c2)c1 [Compound 23a]
**A:** intermediate

**Q:** Into which bin does this compound go? Cc1cc(N)nc(CCc2cccc(NCCN(C)C)c2)c1 [Compound 10b]
**A:** intermediate

**Q:** Into which bin does this compound go? Cc1cc(N)nc(CCc2cc(F)cc(NC3CCNCC3)c2)c1 [Compound 23i]
**A:** low

**Q:** Into which bin does this compound go? Cc1cc(N)nc(CCc2cc(C#N)cc(N(C)CCNC(C)C)c2)c1 [Compound 21b]
**A:** high

**Q:** Into which bin does this compound go? Cc1cc(N)nc(CCc2cccc(N(C)CCCN)c2)c1 [Compound 10d]
**A:** low

**Q:** Into which bin does this compound go? CCNCCN(C)c1cc(C#N)cc(CCc2cc(C)cc(N)n2)c1 [Compound 21a]
**A:** high

**Q:** Into which bin does this compound go? CNCCN(C)c1cccc(CCc2cc(C)cc(N)n2)c1 [Compound 10a]
**A:** intermediate

**Q:** Into which bin does this compound go? CNCCN(c1cc(F)cc(CCc2cc(C)cc(N)n2)c1)C1CC1 [Compound 23e]
**A:** intermediate

* * *

biological target: murine iNOS (Mus musculus (Mouse), UniProt P29477); experiment: Oxyhemoglobin NO capture assay with purified NOS; format: biochemical; details: Table 13; read-out: iNOS Ki
Field: pKi. Provide a value for each of the compounds that follow.
# pKi = -log10(concentration in molar units)

Kindly note the recorded pKi for Cc1cc(N)nc(CCc2cccc([C@@H](N)Cc3cc(C)cc(N)n3)c2)c1 [Compound 3S] , which is 4.75

Kindly note the recorded pKi for Cc1cc(N)nc(CCc2cccc([C@H](N)Cc3cc(C)cc(N)n3)c2)c1 [Compound 3R] , which is 4.81

* * *

test: Plasma pharmacokinetics and brain distribution in mice; type: in vivo, male BALB/c mice; details: male, BALB/c, mouse, plasma, iv, 2 mg/kg, i.v. 2 mg/kg
readout_name: clearance (mL/min/kg)
Express it in mL/min/kg; write the number only.

Kindly note the recorded clearance for CNCCN(C)c1cc(C#N)cc(CCc2cc(C)cc(N)n2)c1 [Compound 19c] , which is 184

* * *

test: Plasma pharmacokinetics and brain distribution in mice; assay type: in vivo, male BALB/c mice; conditions: male, BALB/c, mouse, po; p.o. 10 mg/kg, brain; read-out: Tmax
readout_name: Tmax (h)
Express it in h; write the number only.

Kindly note the recorded Tmax for CNCCN(C)c1cc(C#N)cc(CCc2cc(C)cc(N)n2)c1 [Compound 19c] , which is 4

* * *

target: murine iNOS (Mus musculus (Mouse), UniProt P29477); assay: Oxyhemoglobin NO capture assay with purified NOS; type: biochemical; settings: Table 9; read-out: Ki iNOS
readout_name: pKi
# pKi = -log10(concentration in molar units)

Kindly note the recorded pKi for CCNCCN(C)c1cc(F)cc(CCc2cc(C)cc(N)n2)c1 [Compound 23b] , which is 5.20

Kindly note the recorded pKi for CCN(CCNC)c1cc(F)cc(CCc2cc(C)cc(N)n2)c1 [Compound 23d] , which is 5.30

Kindly note the recorded pKi for Cc1cc(N)nc(CCc2cccc(NCCN(C)C)c2)c1 [Compound 10b] , which is 5.27

Kindly note the recorded pKi for Cc1cc(N)nc(CCc2cc(F)cc(NCCN(C)C)c2)c1 [Compound 23a] , which is 5.48

Kindly note the recorded pKi for CNCCN(C)c1cc(CCc2cc(C)cc(N)n2)cc(C(F)(F)F)c1 [Compound 19a] , which is 5.09

Kindly note the recorded pKi for CCNCCN(C)c1cc(C#N)cc(CCc2cc(C)cc(N)n2)c1 [Compound 21a] , which is 4.94

Kindly note the recorded pKi for Cc1cc(N)nc(CCc2cc(F)cc(NC3CCNCC3)c2)c1 [Compound 23i] , which is 4.87

Kindly note the recorded pKi for Cc1cc(N)nc(CCc2cc(F)cc(N(C)CCNC3CC3)c2)c1 [Compound 23c] , which is 4.96

Kindly note the recorded pKi for CNCCN(C)c1cc(C#N)cc(CCc2cc(C)cc(N)n2)c1 [Compound 19c] , which is 5.44

Kindly note the recorded pKi for CNCCN(C)c1cccc(CCc2cc(C)cc(N)n2)c1 [Compound 10a] , which is 5.27

Kindly note the recorded pKi for Cc1cc(N)nc(CCc2cc(F)cc(NCc3cccc(Cl)c3)c2)c1 [Compound 23f] , which is 5.02

Kindly note the recorded pKi for Cc1cc(N)nc(CCc2cc(F)cc(N3CCNCC3)c2)c1 [Compound 23h] , which is 5.45

Kindly note the recorded pKi for Cc1cc(N)nc(CCc2cccc(N(C)CCCN)c2)c1 [Compound 10d] , which is 5.33

Kindly note the recorded pKi for Cc1cc(N)nc(CCc2cc(F)cc(NCc3cccnc3)c2)c1 [Compound 23g] , which is 4.96

Kindly note the recorded pKi for Cc1cc(N)nc(CCc2cccc(N(C)CCN)c2)c1 [Compound 10c] , which is 5.54

* * *

Field: pKi. Provide a value for each of the compounds that follow.
target: bovine eNOS (Bos taurus (Bovine), UniProt P29473); assay: Oxyhemoglobin NO capture assay with purified NOS; type: biochemical; conditions: Table 9; read-out: Ki eNOS
# pKi = -log10(concentration in molar units)

Kindly note the recorded pKi for CNCCN(c1cc(F)cc(CCc2cc(C)cc(N)n2)c1)C1CC1 [Compound 23e] , which is 5.10

Kindly note the recorded pKi for Cc1cc(N)nc(CCc2cc(F)cc(NC3CCNCC3)c2)c1 [Compound 23i] , which is 5.31

Kindly note the recorded pKi for Cc1cc(N)nc(CCc2cccc(N(C)CCCN)c2)c1 [Compound 10d] , which is 4.97

Kindly note the recorded pKi for CCNCCN(C)c1cc(C#N)cc(CCc2cc(C)cc(N)n2)c1 [Compound 21a] , which is 4.42

Kindly note the recorded pKi for Cc1cc(N)nc(CCc2cc(C#N)cc(N(C)CCNC3CC3)c2)c1 [Compound 21c] , which is 4.51

Where do these numbers come from? They come from patent US9951014B2.
